# Lookup of reported kon keyed by entry
- target.of.assay: T1, recombinant mouse TfR-1, His-tagged (Sino Biological 50741-M07H) (mouse, UniProt Q62351 89-763)
- T1 construct: bought; His-tagged; also called mTfR1; mTfR-1
- experiment.summary: SPR, His-captured TfR1
Write it as a number; the unit M⁻¹ s⁻¹ goes unstated.

binder	kon / M⁻¹ s⁻¹
Clone C variant 3 VNAR-hFc (Fc fusion, not shown: a dimerising Fc or GST) ARVDQTPQTITKETGESLTINCVLRDSNCALSSTYWYRKKSGSTNEENISKGGRYVETVNSGSKSFSLRINDLTVEDSGTYRCNVVQHPSYNNYFWCDVYGDGTAVTVN	355000

We now examine a further binder.
Query :: Return kon (reported value) for this binder: Clone C variant 12 VNAR-hFc (Fc fusion, not shown: a dimerising Fc or GST) ARVDQTPQTITKETGESLTINCVLRDSNCALSSTYWYRKKSGSTNEENISKGGRYVETVNSGSKSFSLRINDLTVEDSGTYRCNVVQYPQQDNPFWCDVYGDGTAVTVN
Result :: 179000
